pKi reference
Target: human A2A adenosine receptors (Homo sapiens, UniProt P29274)
Construct: expressed in transfected cells; host or cells: CHO cells
Sequence (P29274 whole entry): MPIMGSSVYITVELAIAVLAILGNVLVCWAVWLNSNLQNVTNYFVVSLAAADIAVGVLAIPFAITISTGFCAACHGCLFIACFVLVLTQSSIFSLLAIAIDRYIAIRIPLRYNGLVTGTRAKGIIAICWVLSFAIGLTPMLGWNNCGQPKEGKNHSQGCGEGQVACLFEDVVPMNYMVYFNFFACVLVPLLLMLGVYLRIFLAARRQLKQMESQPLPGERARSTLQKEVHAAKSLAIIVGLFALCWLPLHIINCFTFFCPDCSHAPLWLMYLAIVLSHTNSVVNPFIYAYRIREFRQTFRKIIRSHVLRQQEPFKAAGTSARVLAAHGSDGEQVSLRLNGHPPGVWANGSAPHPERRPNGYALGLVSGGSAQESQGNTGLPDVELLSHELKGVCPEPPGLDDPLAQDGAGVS
Assay: Displacement of [3H]SCH58261 binding at human A2A adenosine receptors expressed in CHO cells
Conditions: Table 2, footnote b: [3H]SCH58261, human A2A, CHO cells
pKi: −log10 of the molar value.

1) Nc1nc2c(cnn2CCc2ccccc2)c2nc(-c3ccc(OCC(=O)Nc4ccc(I)cc4)cc3)nn12 :: < 6.00
2) Nc1nc2c(cnn2CCc2ccccc2)c2nc(-c3ccc(OCC(=O)O)cc3)nn12 :: < 6.00
3) CCOc1ccccc1-c1nc2c3cnn(CCc4ccccc4)c3nc(N)n2n1 :: < 6.00

Considering `CCOC(=O)COc1ccc(-c2nc3c4cnn(CCc5ccccc5)c4nc(N)n3n2)cc1` , its pKi with human A2A adenosine receptors (Homo sapiens, UniProt P29274) was recorded as < 6.00

* * *

Target: human A1 adenosine receptors (Homo sapiens, UniProt P30542)
Construct: expressed in transfected cells; host or cells: CHO cells
Sequence (P30542 1-326): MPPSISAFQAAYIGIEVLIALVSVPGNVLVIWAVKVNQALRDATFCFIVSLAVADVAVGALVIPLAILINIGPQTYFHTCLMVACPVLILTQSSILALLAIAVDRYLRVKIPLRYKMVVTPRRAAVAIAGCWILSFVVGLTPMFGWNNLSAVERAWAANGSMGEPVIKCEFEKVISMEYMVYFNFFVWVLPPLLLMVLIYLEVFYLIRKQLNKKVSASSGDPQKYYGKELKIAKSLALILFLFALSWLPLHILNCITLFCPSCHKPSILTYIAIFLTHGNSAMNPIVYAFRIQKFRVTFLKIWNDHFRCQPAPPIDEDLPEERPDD
Experiment: Displacement of [3H]DPCPX binding at human A1 adenosine receptors expressed in CHO cells
Settings: Table 3: [3H]DPCPX, human A1, CHO cells
property_name: Ki (µM)
Please state the figure in µM; there is no need to write the unit.

Take a look at these entries with their results.
1. COc1ccc(CC(=O)Nc2nc3nn(C)c(SC)c3c3nc(-c4ccco4)nn23)cc1 :: 0.08
2. CN1CCN(c2c3c(nc(N)n4nc(-c5ccco5)nc34)nn2C)CC1 :: 0.03
3. CSc1c2c(nc(N)n3nc(-c4ccco4)nc23)nn1C :: 0.0084

In plain terms, `CSc1c2c(nc(NC(=O)Cc3ccc4c(c3)OCO4)n3nc(-c4ccco4)nc23)nn1C` has a documented Ki of 0.07

Field Ki (entry `Cn1nc2nc(N)n3nc(-c4ccco4)nc3c2c1Nc1ccc(O)cc1` ) reads 0.666
